Below, each entry is listed with its recorded response.
B1: VH59 fused to the VP16 activation domain (pEF-VP16, CHO cells) / GAL4 DNA binding domain (DBD)-LEDGF IBD fusion (pM1, CHO cells) [not stated] (parent complex)
chain 1: EVQLLESGGGLVQPGGSLRLSCAASGFTFSTFSMNWVRQAPGKGLEWVSYISRTSKTIYYADSVKGRFTISRDNSKNTLYLQMNSLRAEDTAVYYCARGGWALGDEIPSSFLEFDYWGQGTLVTVS
chain 2: ETSMDSRLQRIHAEIKNSLKIDNLDVNRCIEALDELASLQVTMQQAQKHTEMITTLKKIRRFKVSQVIMEKSTMLYNKFKNMFLVGE

# Variants of: B1
# test summary: mammalian two-hybrid luciferase reporter assay in CHO cells; 48 h after transfection; Firefly luciferase normalised to Renilla; read off a plot

Given the entry chain 2 L24A , report its measured response.
~0.02

Now this one: chain 2 L19A
~0.08

Same for chain 2 I21A
~0.05

Entry chain 2 D22A please
~0.79

Here is the next variant: chain 2 K20A
~0.71
